System: MS2 coat protein
Assay overview: apparent KD of MS2 coat protein, switch OFF state (with FMN for OFF switches, without FMN for ON switches); designed switch direction (-1 OFF switch, 1 ON switch): 1; higher = weaker reporter binding
Applied conditions: FMN input: 0 or 200 uM; Eterna round: R93 (includes R88 designs)
Lab note: compare apparent KD of MS2 coat protein against 100 nM. Equal or greater, write TRUE. Smaller, write FALSE.

1) AGCCGCACUAUACAGGAUAUCACAAUAUCGACAUGAGGAUCACCCAUGUGACUGGCACCAGUCGGUGAGAAGGGUGAAGUGCGGC [Raarati]	TRUE
2) AUAGGGACGUCGGAGGAUAUUCGAUGUAAAACAUGAGGAUCACCCAUGUGAAUAAAAUAAACAUGGAAGAAGGCCGACGUGCCAU [SS 2 M 54]	FALSE
3) AGGAAACAUGAGGAUCACCCAUGUAAAAAUAUGGGAGGAUAUGCGAAAAGAAACAAAGAAGCAGAAGGCCUAAGAA [75%, Ex5 sub 1, 7]	TRUE
4) AAAAGACAUGAGGAUCACCCAUGUCAAGACGUAGGAGGAUAUGUCGUGAAAAAAGACUUGGCAGAAGGCCUGUGUC [SS1 - 41]	FALSE
5) AUAACACAUGAGGAUCACCCAUGUAGAAAUAAGGGAGGAUAUACAAAGACGAAAGUCAAAGUAGAAGGCUCAAAAG [76%, Meechl 4]	FALSE
6) AAAAAAAAAAACUAGGAUAUUUAACGGACAACAUGAGGAUCACCCAUGUCACAAAAAAAAAUAGUAAAGAAGGAGUAAAAAAAAAA [Same State 2]	FALSE
7) AUAAAUAAAAUCGAGGAUAUCCAAUAAUAAACAUGAGGAUCACCCAUGUAAAAGAAAAUAUAAUGGGAGAAGGCGAAUAAUAAAU [JR_SS002_Sub1701]	FALSE
8) AUAUAUAUAAGGUAGGAUAUCCAAAAGUAAACAUGAGGAUCACCCAUGUAAAAAAUCUAAAAAUGGGAGAAGGACCAUAUAUAUA	FALSE
9) AAAAAACAUGAGGAUCACCCAUGUAGAAACAUGGGAGGAUAUACAAAGACGAAAGUCAAAGUAGAAGGCCUAAGAA [Mat - Same State 1 - Mod - D166]	FALSE
10) AUAAAAUACUGUGAGGAUAUCCAUAAUAAAACAUGAGGAUCACCCAUGUGUAGAUAAUAAUAAUGGGAGAAGGCACAUAAUAAUA [Mat - Same state - Mayanna Mod - D101]	FALSE
11) CAUCAUGCGCCUAAGGAUAUGUCUCACAAGACAUGAGGAUCACCCAUGUAGACAAAAUAAGCGAUGCAGAAGGUGGAGCGCAUGC [Rasoer]	TRUE
12) GGAAAUAAAAGAGAGGAUAUCCAAAAGGAAACAUGAGGAUCACCCAUGUAAAAGAAAGGAAAAUGGGAGAAGGCUCAAAAUAAAG [salish99-ss2-004]	FALSE
13) ACAAAACAUGAGGAUCACCCAUGUCAAGCUAAUCAAGGAUAUGGGAGCGGUCCGGUGCGAUCAGAAGGUGAUUAGA [Gecelear]	FALSE
14) AUAUAAAUAAGGUAGGAUAUACUAAAGUAAACAUGAGGAUCACCCAUGUAAAGAAAGAAACUCAUGUAGAAGGACCAUAUAUAUA [viburnum 1]	TRUE
15) GUCCAACAUGAGGAUCACCCAUGUAAGCGUGAUCAAGGAUAUGGGCGAAAGAAAACGCAACCAGAAGGUGAGCGCC [Aanmati]	TRUE
16) AAAAACAUAGUUCAGGAUAUGGUAAUAGUCACAUGAGGAUCACCCAUGUUCAUUUAUAUGAGCGAUCAGAAGGGAGGUAAAAAAA [Mat - Same state - Malcolm Mod - D115]	TRUE
17) CAUCAUGCGCCUAAGGAUAUGUCUCACAAGACAUGAGGAUCACCCAUGUAGAAUAAAUAAAUGAUGCAGAAGGUGGAGUGCAUGC [Rierre]	TRUE
18) AUAAAACAUGAGGAUCACCCAUGUAGAAAUAUGGGAGGAUAUACAAAGACGAAAGUCGAAGUAGAAGGCCUAAAAG [Mat - Same State 1 - Meechl mod - D117]	FALSE
19) GAAAAACAUGAGGAUCACCCAUGUAGAGAUAUGGGAGGAUAUACGAAGACGAAAGUCGAGGUAGAAGGCCUAAAAG [Garnet 56]	TRUE
20) AAAGACAUAGUUCAGGAUAUGGUAAUAGUCACAUGAGGAUCACCCAUGUUCAUUUAUAUGAGCGAUCAGAAGGGAGGUAAAAAAA [SameState2 Malc#15]	TRUE
21) GGAAAUAACAGAGAGGAUAUCCAAAGGAAAACAUGAGGAUCACCCAUGUAAAAGGAAGGAAAUUGGGAGAAGGCUCAAAAUAAUC [salish99-ss2-017]	FALSE
22) AGGAGACAUGAGGAUCACCCAUGUGAGAAGAGGCGAGGAUAUCGAAAGAAAGAAGAGAAACGAGAAGGCGCGAGUU [salish99-SS1-022]	FALSE
23) AAUAACUAUAACUAGGAUAUCGGAAAUAAGACAUGAGGAUCACCCAUGUAAUAAGACAAAAUAUACGAGAAGGAGUAGGGUGAAA [JR_SS002_Sub012]	FALSE
